assayMethodText: APR_HepG2_CellCycleArrest_24hr: Apredica 24-hour HepG2 Assay for Cell Cycle Arrest (AID 2282905);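 further: cell cycle arrest scored as ratio of 2N to 4N nuclear DNA content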
conditionSummary: imaging, actives raise or lower the signal
The source made the active and inactive calls. How the source made its calls: active means hit-call score of the fitted dose curve at least 0.9, where 1 is the maximum; inactive means score below 0.9.
attributeMeasured: AC50

C#CC(O)C(CC)CCCC (configuration not stated)	inactive
O=C(O)CN(CC(=O)O)CC(=O)O	inactive
CCCCCCCCCC[N+](C)(C)[O-]	inactive
O=C1CCCCC1	inactive

Need AC50 of O=C(O)CC(O)(CC(=O)O)C(=O)O , thanks.
inactive

Need AC50 of CCCCCCC(C=O)=Cc1ccccc1 , thanks.
inactive

Need AC50 of Nc1nc(Cl)nc2c1ncn2[C@H]1C[C@H](O)[C@@H](CO)O1 , thanks.
inactive

Need AC50 of COc1ccc(OC(F)(F)F)cc1CN[C@H]1CCCN[C@H]1c1ccccc1 , thanks.
29.2 µM (active)

Need AC50 of CC(=O)O[C@]1(C(C)=O)CC[C@H]2[C@@H]3C=C(Cl)C4=CC(=O)[C@@H]5C[C@@H]5[C@]4(C)[C@H]3CC[C@@]21C , thanks.
inactive

Need AC50 of CCCCCCCC(=O)OC , thanks.
inactive

Need AC50 of Cc1cc(Cc2ccc(N)c(C)c2)ccc1N , thanks.
35.1 µM (active)

Need AC50 of COC(=O)[C@H]1[C@H]2C[C@@H]3c4[nH]c5cc(OC)ccc5c4CCN3C[C@H]2C[C@@H](OC(=O)c2cc(OC)c(OC)c(OC)c2)[C@@H]1OC , thanks.
79 µM (active)

###

assayMethodText: CCTE_Shafer_MEA_acute_interburst_interval_mean: CCTE's Neural Acute Assay for Mean Interburst Interval, Shafer Lab (AID 2284016);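 further: percent change of mean interburst interval versus each well's own pre-dose baseline; curves fitted for decrease in interburst interval relative to DMSO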
Activity calls are given as the source filed them. How the source made its calls: active means hit-call score of the fitted dose curve at least 0.9, where 1 is the maximum; inactive means score below 0.9.
// one of active, inactive, no free text

O=C(O)CN(CC(=O)O)CC(=O)O	inactive
C/C=C/c1ccc(OC)cc1	inactive
CSc1ccc(Oc2ccc(S(N)(=O)=O)cc2CN(C)C)cc1C	inactive
CC(C)NCC(O)c1ccc(O)c(O)c1 (stereo unspecified)	inactive
Cc1ccc(C(C)(C)C)c(O)c1	inactive

Moving on to another molecule below.
Per the records of this test, what outcome belongs to CCCC(=O)O ?
inactive

###

assayMethodText: APR_HepG2_P-H2AX_24hr: Apredica 24-hour HepG2 Assay for H2AX Phosphorylation (AID 2282920)
conditionSummary: high-content imaging, actives raise or lower the signal
Active and inactive are the calls of the source. How the source made its calls: active means hit-call score of the fitted dose curve at least 0.9, where 1 is the maximum; inactive means score below 0.9.
// one of TRUE (active), FALSE (inactive), no free text

Example entries begin here.
COC(=O)CCCC(=O)OC	FALSE
c1ccc2occc2c1	FALSE
O=C(O)c1[nH]n(-c2ccc(S(=O)(=O)O)cc2)c(=O)c1N=Nc1ccc(S(=O)(=O)O)cc1	FALSE
Cc1c(C)c2c(c(C)c1O)CCC(C)(COc1ccc(CC3SC(=O)NC3=O)cc1)O2 (stereo not drawn)	FALSE
CC(=O)OC1CC(C)OC(C)O1 (stereo not drawn)	FALSE

Per the records of this test, what outcome belongs to CCCCC(CC)COC(=O)CCCCCCCC(=O)OCC(CC)CCCC (stereo not drawn) ?
FALSE

Per the records of this test, what outcome belongs to O=C(O)CC(O)(CC(=O)O)C(=O)O ?
FALSE

Per the records of this test, what outcome belongs to CC(COCC(C)OC(=O)c1ccccc1)OC(=O)c1ccccc1 (stereo not drawn) ?
FALSE

Per the records of this test, what outcome belongs to CCCCc1nc2cccnc2n1Cc1ccc(-c2ccccc2-c2nnn[nH]2)cc1 ?
TRUE

Per the records of this test, what outcome belongs to CC(C)c1cccc(C(C)C)c1 ?
FALSE

Per the records of this test, what outcome belongs to OCC(O)CO ?
FALSE

Per the records of this test, what outcome belongs to CC(C)c1cccc(C(C)C)c1NC(=O)NS(=O)(=O)c1cc(C(C)(C)O)co1 ?
FALSE

###

testedTarget: Bile acid receptor (Homo sapiens) (UniProt Q96RI1)
Sequence (Q96RI1 whole entry, looked up): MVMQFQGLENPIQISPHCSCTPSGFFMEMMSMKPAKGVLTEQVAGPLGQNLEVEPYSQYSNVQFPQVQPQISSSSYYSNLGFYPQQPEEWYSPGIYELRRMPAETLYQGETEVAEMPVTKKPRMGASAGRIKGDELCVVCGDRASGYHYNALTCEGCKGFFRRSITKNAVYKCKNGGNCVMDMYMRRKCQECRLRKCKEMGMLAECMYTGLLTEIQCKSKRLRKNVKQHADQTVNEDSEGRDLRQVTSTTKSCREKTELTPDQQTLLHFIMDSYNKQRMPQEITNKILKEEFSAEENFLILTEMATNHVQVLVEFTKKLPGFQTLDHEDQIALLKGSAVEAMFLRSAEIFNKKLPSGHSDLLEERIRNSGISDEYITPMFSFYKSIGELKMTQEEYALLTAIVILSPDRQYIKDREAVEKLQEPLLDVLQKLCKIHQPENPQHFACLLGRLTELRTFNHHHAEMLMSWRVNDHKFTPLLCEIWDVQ
assayMethodText: ATG_IR1_CIS: Attagene CIS-FACTORIAL HepG2 Assay for human Nuclear Receptor Subfamily 1 Group H Member 4 (NR1H4), IR1 submotif (AID 2282946)
conditionSummary: IR1 reporter transcription, actives raise or lower the signal
Active and inactive are the calls of the source. How the source made its calls: active means hit-call score of the fitted dose curve at least 0.9, where 1 is the maximum; inactive means score below 0.9.
// one of active, inactive, no free text

Per the records of this test, what outcome belongs to c1ccc2occc2c1 ?
inactive

Per the records of this test, what outcome belongs to CN(C)C(=O)NC1(c2ccccc2)CCN(CCC[C@]2(c3ccc(Cl)c(Cl)c3)CCCN(C(=O)c3ccccc3)C2)CC1 ?
active

Per the records of this test, what outcome belongs to CC(C)c1cccc(C(C)C)c1NC(=O)NS(=O)(=O)c1cc(C(C)(C)O)co1 ?
inactive

###

Read-out: catalase (CAT), CAT (gene 847)
assayMethodText: LTEA_HepaRG_CAT: Life Technologies and Expression Analysis (LTEA) Assay for catalase (CAT) using HepaRG (AID 2283452)
conditionSummary: mRNA level, 48 h; actives raise or lower the signal
Activity calls are given as the source filed them. How the source made its calls: active means hit-call score of the fitted dose curve at least 0.9, where 1 is the maximum; inactive means score below 0.9.
// one of active, inactive, no free text

Oc1ccccc1O	inactive
COC(=O)CCCC(=O)OC	inactive
CC(=O)O[C@]1(C(C)=O)CC[C@H]2[C@@H]3C=C(Cl)C4=CC(=O)[C@@H]5C[C@@H]5[C@]4(C)[C@H]3CC[C@@]21C	active
CC(=O)O	inactive
O=C1c2c(O)cccc2Cc2cccc(O)c21	inactive

Per the records of this test, what outcome belongs to S=c1[nH]c2ccccc2s1 ?
inactive

Per the records of this test, what outcome belongs to NC1CCCCC1 ?
inactive

###

Read-out: Lipoprotein lipase (LPL), LPL (gene 4023)
assayMethodText: LTEA_HepaRG_LPL: Life Technologies and Expression Analysis (LTEA) Assay for Lipoprotein lipase (LPL) using HepaRG (AID 2283515)
conditionSummary: mRNA level, 48 h; actives raise or lower the signal
Activity calls are given as the source filed them. The calls were made as follows: active = hit-call score of the fitted dose curve at least 0.9, where 1 is the maximum; inactive = score below 0.9.
// one of yes (1) = active, no (0) = inactive, no free text

Example entries begin here.
COC(=O)CCCC(=O)OC	no (0)
O=C(O)CC(O)(CC(=O)O)C(=O)O	no (0)
OCC(CO)n1cnc(-c2ccc(F)cc2)c1-c1ccnc(Oc2ccccc2)n1	no (0)
COc1ccc(C(=O)Nc2nc3ccccc3c(NCc3ccccc3)c2C#N)cc1	yes (1)
S=c1[nH]c2ccccc2s1	no (0)
Cc1ccc(-c2cc(C(F)(F)F)nn2-c2ccc(S(N)(=O)=O)cc2)cc1	yes (1)
CCC(C)N(C)C(=O)c1cc2ccccc2c(-c2ccccc2Cl)n1 (centres undefined)	no (0)
C/C=C/c1ccc(OC)cc1	no (0)

Per the records of this test, what outcome belongs to Oc1ccccc1O ?
no (0)

###

Read-out: growth arrest and DNA damage 45 (GADD45B), GADD45B (gene 4616)
assayMethodText: LTEA_HepaRG_GADD45B: Life Technologies and Expression Analysis (LTEA) Assay for growth arrest and DNA damage 45 (GADD45B) using HepaRG (AID 2283461)
conditionSummary: mRNA level, 48 h; actives raise or lower the signal
Activity calls are given as the source filed them. The calls were made as follows: active = hit-call score of the fitted dose curve at least 0.9, where 1 is the maximum; inactive = score below 0.9.
// one of active, inactive, no free text

NC(=Nc1ccccc1)Nc1ccccc1	inactive
OCC(CO)n1cnc(-c2ccc(F)cc2)c1-c1ccnc(Oc2ccccc2)n1	inactive
NC1CCCCC1	inactive
C/C=C/C=C/C(=O)O	inactive
Nc1nc(=S)c2[nH]cnc2[nH]1	inactive

Moving on to another molecule below.
Per the records of this test, what outcome belongs to CCCCC(CC)COP(=O)(OCC(CC)CCCC)OCC(CC)CCCC (centres undefined) ?
inactive

###

Read-out: Cyclin D1 (CCND1), CCND1 (gene 595)
assayMethodText: LTEA_HepaRG_CCND1: Life Technologies and Expression Analysis (LTEA) Assay for Cyclin D1 (CCND1) using HepaRG (AID 2283451);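 on AC50: differentiated human HepaRG liver cells in serum-free induction medium; TaqMan qRT-PCR transcript level normalised to ACTB GAPDH and POLR2A housekeeping genes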
conditionSummary: mRNA level, 48 h; actives raise or lower the signal
Calls of active or inactive are those of the source. The calls were made as follows: active = hit-call score of the fitted dose curve at least 0.9, where 1 is the maximum; inactive = score below 0.9.
attributeMeasured: AC50

The cases that follow already have their AC50 on record.
CN(C)C(=O)NC1(c2ccccc2)CCN(CCC[C@]2(c3ccc(Cl)c(Cl)c3)CCCN(C(=O)c3ccccc3)C2)CC1	22.7 µM (active)
O=NO	inactive
CC(C)(O)c1ccc(CNC(=O)c2cccnc2Oc2ccc(F)cc2)cc1	inactive
CCc1nc(N)nc(N)c1-c1ccc(Cl)cc1	inactive
Cc1cc(Cc2ccc(N)c(C)c2)ccc1N	inactive

Query molecule follows.
Need AC50 of CC1=C(C)S(=O)(=O)CCS1(=O)=O , thanks.
inactive

###

assayMethodText: CEETOX_H295R_OHPREG: CeeTox H295R High-throughput Steroidogenesis Assay for OH-Pregnenolone (OHPREG) (AID 2283434)
conditionSummary: actives raise or lower the signal
The source made the active and inactive calls. The calls were made as follows: active = hit-call score of the fitted dose curve at least 0.9, where 1 is the maximum; inactive = score below 0.9.
attributeMeasured: AC50

O=C1NC(=O)C(c2ccccc2)(c2ccccc2)N1	inactive
Cc1cc(Cc2ccc(N)c(C)c2)ccc1N	4.69 µM (active)
Oc1ccc(O)cc1	inactive
CC1=C(C)S(=O)(=O)CCS1(=O)=O	inactive
CCC(C)N(C)C(=O)c1cc2ccccc2c(-c2ccccc2Cl)n1 (configuration not stated)	inactive

Need AC50 of Nc1nc(Cl)nc2c1ncn2[C@H]1C[C@H](O)[C@@H](CO)O1 , thanks.
6.46 µM (active)

Need AC50 of CCCCc1nc2cccnc2n1Cc1ccc(-c2ccccc2-c2nnn[nH]2)cc1 , thanks.
10.6 µM (active)

Each recorded value in this set is attributed to PubChem BioAssay (EPA / NIEHS).
